Data credit: patent US11471462B2

# Tested on: SLC16A11
# EXPERIMENTAL DETAILS: SLC16A11 protein-protein interaction study (immunoprecipitation, quantitative mass spectrometry)
# Parameters: species or system human
# MEASUREMENT CONTEXT: putative SLC16A11^REF interaction partners; immunoprecipitation from HEK293T cells vs empty vector control; Blandt-Altman
ASSAY METRIC: BA log fold change
I'd appreciate a reply containing only the number, no unit.

// query Endpoint output: BA log fold change of SLC25A22 (protein) MADKQISLPAKLINGGIAGLIGVTCVFPIDLAKTRLQNQQNGQRVYTSMSDCLIKTVRSEGYFGMYRGAAVNLTLVTPEKAIKLAANDFFRHQLSKDGQKLTLLKEMLAGCGAGTCQVIVTTPMEMLKIQLQDAGRIAAQRKILAAQGQLSAQGGAQPSVEAPAAPRPTATQLTRDLLRSRGIAGLYKGLGATLLRDVPFSVVYFPLFANLNQLGRPASEEKSPFYVSFLAGCVAGSAAAVAVNPCDVVKTRLQSLQRGVNEDTYSGILDCARKILRHEGPSAFLKGAYCRALVIAPLFGIAQVVYFLGIAESLLGLLQDPQA . Value?
// result 1.20
